Biological target: Phospholipase A2, membrane associated (Homo sapiens) (UniProt P14555)
Sequence (whole entry): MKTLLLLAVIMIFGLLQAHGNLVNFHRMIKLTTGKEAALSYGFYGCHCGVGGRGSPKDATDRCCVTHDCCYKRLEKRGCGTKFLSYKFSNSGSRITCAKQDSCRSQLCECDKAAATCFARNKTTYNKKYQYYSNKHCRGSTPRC
Test: Inhibition of sPLA2-2A at 10 uM by coupled enzyme assay
result-type: inhibition (%)

The examples below pair each entry with its known result.
{"compound": "CC/C=C/C/C=C/C/C=C/C/C=C\\C/C=C/CCCCCC(=O)OCC(O)CO (stereo unspecified)", "inhibition, %": 37.4}
{"compound": "CCCCC/C=C/C/C=C/C/C=C\\C/C=C/CCCCCC(=O)OCC(O)CO (stereo unspecified)", "inhibition, %": 37.9}
{"compound": "CCCCCCCCCCCCCCCCCC(=O)OCC(O)CO (stereo unspecified)", "inhibition, %": 32.8}

1: CC/C=C/C/C=C/C/C=C/C/C=C\C/C=C/C/C=C/CCC(=O)OCC(O)CO (stereo unspecified)
2: CC/C=C/C/C=C/C/C=C\C/C=C/CCCCC(=O)OC[C@@H](O)CO
Param pair: 1 , 2 . Output: the one whose inhibition is numerically greater. Return value: the label identifying the chosen record.
1
